Target: T1, Hof1, Q05080
T1 sequence (Q05080 590-669, looked up): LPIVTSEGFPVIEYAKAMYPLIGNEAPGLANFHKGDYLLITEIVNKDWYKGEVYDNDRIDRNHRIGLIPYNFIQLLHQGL
Assay: SPOT array
Settings: median of control spots 4086
measured attribute: SPOT intensity
One number for each entry.

| binder | SPOT intensity |
| --- | --- |
| SKAKRPKFLLDLQIK | 2 |
| GKLKHIPRRPYEIER | 1 |
| QGYPRQPQRPQRYHP | 3 |
| MSPLGAPPPPPHKDH | 0 |

Value sought for every listed binder: SPOT intensity.
1. NNFYRPLLRSVLVLL
2. VNFRRIPTGPDSPPT

[0, 3]

Quick note, SPOT intensity for RAPPPVPKKPSSRIA landed at 4

Data origin, for the record: paper PMC2756588
